Tested on: IGROV-1
Experiment: NCI tumour cell line growth inhibition, 48 h
Calls of active or inactive are those of the source. Cut-off read from the data, not from the text of the source: active = GI50 up to about 1.1 µM and inactive = higher.
ASSAY_METRIC: GI50

COMPOUND	GI50
Cc1oc2nc(N(C)C)nc(Cl)c2c1C	49.8 µM (inactive)
COC(=O)[C@]1(c2cc3ccccc3[nH]2)CC2CN(CC(=O)N(C)OC)C1C1OC(C)(C)OC21 (stereo partly specified)	59.3 µM (inactive)
Nn1c(Sc2nc3ccccc3c(=O)n2N)nc2ccccc2c1=O	6.5 µM (inactive)

Recorded GI50 for CC(Cc1ccc(Cl)cc1Cl)NO (stereo unspecified) , please?
> 100 µM (inactive)

Recorded GI50 for O=C1c2ccccc2C(=O)N1CC1S(=O)(=O)OCCOS1(=O)=O , please?
> 100 µM (inactive)

Recorded GI50 for COC(=O)c1ccc(C)cc1/C=C1\Cc2ccc(C)cc2C1=O , please?
10.4 µM (inactive)

* * *

Tested on: EKVX
Experiment: NCI tumour cell line growth inhibition, 48 h
Where a name gives a salt, the structure may show the parent alone. Calls of active or inactive are those of the source. Cut-off read from the data, not from the text of the source: active = GI50 up to about 1.1 µM and inactive = higher.
ASSAY_METRIC: GI50

Some solved entries appear below for comparison.
COMPOUND	STUDY_SYSTEM	EXPERIMENTAL_VALUE
CN(C)CCOC(=O)COc1ccc(Cl)cc1 [CENTROPHENOXINE HYDROCHLORIDE]	EKVX	> 100 µM (inactive)
Nc1nc(SCC(=O)O)nc(O)c1N	EKVX	> 100 µM (inactive)

Next compound, please.
Recorded GI50 for CCC(=O)/C=C/c1ccccc1 , please?
> 100 µM (inactive)

* * *

Tested on: NCI-H23
Assay: NCI tumour cell line growth inhibition, 48 h
Active and inactive are the calls of the source. Cut-off read from the data, not from the text of the source: active = GI50 up to about 1.1 µM and inactive = higher.
Thanks in advance; please answer with one of these: active, inactive

Previously resolved entries follow.
MOLECULE	ANSWER_LABEL
C[n+]1ccn2c3nc4ccccc4nc3c([O-])c(C#N)c21	inactive
CC1(C)S[C@@H]2[C@H](NC(=O)C3(N)CCCCC3)C(=O)N2[C@H]1C(=O)O	inactive
COc1ccc(-c2c(C#N)c(N)n(C3OCC(O)C(O)C3O)c(=S)c2C#N)cc1 (stereo unspecified)	inactive

# outcome recorded in this test, key = CC(C)(C)OC(=O)NCCC(N)=S
inactive

# outcome recorded in this test, key = N/C(=N\Nc1cccc(Cl)c1)c1cccnc1
inactive

# outcome recorded in this test, key = Cc1cc(OCc2nn(CN3CCN(C)CC3)c(=S)n2/N=C/c2ccc(-c3ccc(Cl)cc3Cl)o2)ccc1Cl
inactive

# outcome recorded in this test, key = CC(C)(C)c1ccc(O)c(CN(Cc2cc(C(C)(C)C)ccc2O)c2ccccc2)c1
inactive

# outcome recorded in this test, key = CCCCCCCCCCOC1C(C(C)OCCCN(C)C)OC2OC3(CCCCC3)OC21 (stereo unspecified)
inactive

# outcome recorded in this test, key = C=C1CC2(C[C@@H](c3ccccc3)O[C@@H](c3ccccc3)C2)OC1=O (stereo partly specified)
inactive

# outcome recorded in this test, key = CCOC(=O)C(=[N+]=[N-])C(=O)Nc1nn2nnnc2c2ccccc12
inactive

# outcome recorded in this test, key = OC(c1cc(C(O)(C(F)(F)F)C(F)(F)F)ncn1)(C(F)(F)F)C(F)(F)F
inactive

* * *

Test system: XF498
Test: NCI tumour cell line growth inhibition, 48 h
Active and inactive are the calls of the source. Rule as the data show it: active = GI50 up to about 1.1 µM and inactive = higher.
Reported GI50 by item:

Some solved entries appear below for comparison.
COMPOUND	STUDY_SYSTEM	ASSAY_METRIC	EXPERIMENTAL_VALUE
C=C1CCc2occ(C)c2C2C1C1=C(CC(C)C1=O)C1OC12C (stereo unspecified)	XF498	GI50	91.6 µM (inactive)
COc1ccc(/C=C2\CCC(CCN3CCOCC3)C2=O)cc1 (stereo unspecified)	XF498	GI50	> 100 µM (inactive)
Cl[Si]1(Cl)Oc2ccccc2O[Si](Cl)(Cl)Oc2ccccc2O1	XF498	GI50	15.2 µM (inactive)
CCCCCCCC/C=C1\CCC(CN2CCOCC2)C1=O (stereo unspecified)	XF498	GI50	14.2 µM (inactive)

Next compound, please.
Recorded GI50 for C=CCNC(=S)N1c2ccccc2NC(=O)CC1C (stereo unspecified) , please?
> 100 µM (inactive)

* * *

System: TK-10
Assay: NCI tumour cell line growth inhibition, 48 h
The source made the active and inactive calls. No stated cut-off is given here; in the data, active = GI50 up to about 1.1 µM and inactive = higher.
ASSAY_METRIC: GI50

Some solved entries appear below for comparison.
MOLECULE	EXPERIMENTAL_VALUE
COc1ccc(NC(=O)C2C(=O)N(c3ccc(OC)cc3)C(=O)/C2=N\N)cc1 (stereo not given)	> 100 µM (inactive)
CCOP(=O)(OCC)/C(C#N)=C/c1cccn1C	> 100 µM (inactive)
Cc1cc(OCc2nn(CN3CCN(C)CC3)c(=S)n2/N=C/c2ccc(-c3ccc(Cl)cc3Cl)o2)ccc1Cl	75.2 µM (inactive)

Recorded GI50 for C[C@@H]1[C@@H](C)C(c2ccccc2)O[Si]1(C(C)(C)C)C(C)(C)C (stereo not given in full) , please?
16.4 µM (inactive)

Recorded GI50 for COC(=O)C(=O)C(C(=O)C(=O)Nc1ccc(C)c(C)c1)c1nc2ccc([N+](=O)[O-])cc2nc1O (stereo not given) , please?
> 100 µM (inactive)

* * *

System: HOP-92
Assay: NCI tumour cell line growth inhibition, 48 h
The source made the active and inactive calls. Cut-off read from the data, not from the text of the source: active = GI50 up to about 1.1 µM and inactive = higher.
ASSAY_METRIC: GI50

COMPOUND	GI50
O=C1NN=C(c2c[nH]c3ccccc23)CC1NCc1ccccc1 (stereo not given)	> 100 µM (inactive)
O=c1[nH]cc(COCC(F)(F)C(F)(F)C(F)(F)C(F)F)c(=O)[nH]1	> 100 µM (inactive)
CC1(C)S[C@@H]2[C@H](NC(=O)C3(N)CCCCC3)C(=O)N2[C@H]1C(=O)O	> 100 µM (inactive)
C=C1CC2(C[C@@H](c3ccccc3)O[C@@H](c3ccccc3)C2)OC1=O (stereo not given in full)	5.22 µM (inactive)
CC(=O)c1ccc(NC(=O)C(=O)C(C#N)CC(C)(C)C=O)cc1 (stereo not given)	68.4 µM (inactive)

Recorded GI50 for C=C1CCc2occ(C)c2C2C1C1=C(CC(C)C1=O)C1OC12C (stereo not given) , please?
> 100 µM (inactive)

Recorded GI50 for Oc1ccc2ccccc2c1/N=N/c1cc(Cl)ccc1Cl , please?
22.3 µM (inactive)

Recorded GI50 for O=C(O)CCc1cccc2c1oc1c(CCC(=O)O)cccc12 , please?
> 100 µM (inactive)

Recorded GI50 for Cc1cc2c(c(C(=O)NCCC(=O)O)c1)Oc1c(cc(C)cc1C(=O)NCCC(=O)O)S2 , please?
> 100 µM (inactive)

Recorded GI50 for O=C(CSSCC(=O)Nc1ccc(Br)cc1)Nc1ccc(Br)cc1 , please?
19 µM (inactive)

* * *

System: MDA-MB-231
Test: NCI tumour cell line growth inhibition, 48 h
Active and inactive are the calls of the source. No stated cut-off is given here; in the data, active = GI50 up to about 1.1 µM and inactive = higher.
ASSAY_METRIC: GI50

CCCCCCCCCCCCOCCCCCCCCC/C=C/c1ccc2c(c1)OCCOCCOCCOCCO2 17.1 µM (inactive)
CC(C)(C)c1ccc(O)c(CN(Cc2cc(C(C)(C)C)ccc2O)c2ccccc2)c1 16.9 µM (inactive)
O=C(Nc1nc(C23CC4CC(CC(C4)C2)C3)cs1)c1cc2cc([N+](=O)[O-])ccc2oc1=O 20.9 µM (inactive)
COc1ccc2c(O)c1-c1c(OC)ccc(c1O)SSc1ccc(OC)c(c1O)-c1c(OC)ccc(c1O)SS2 44.3 µM (inactive)

Next compound, please.
Recorded GI50 for Cc1cc(S(=O)(=O)Nc2nc(-c3ccccn3)n[nH]2)c(S)cc1Cl , please?
29.2 µM (inactive)

* * *

System: SK-MEL-5
Assay: NCI tumour cell line growth inhibition, 48 h
Calls of active or inactive are those of the source. Cut-off read from the data, not from the text of the source: active = GI50 up to about 1.1 µM and inactive = higher.
Thanks in advance; please answer with one of these: active, inactive

Previously resolved entries follow.
COMPOUND	ANSWER_LABEL
COc1ccc2nc3cccc([N+](=O)[O-])c3c(NCCO)c2c1	active
CC1SC(=O)SC1C (centres undefined)	inactive
c1ccc2c(c1)-c1ccccc1C2N1CC2CCC(CC2)C1	inactive

# outcome recorded in this test, key = CCCCc1c2c(nc3c1CCCC3=O)CCCC2
inactive

* * *

Tested on: HL-60
Assay: NCI tumour cell line growth inhibition, 48 h
Activity calls are given as the source filed them. No stated cut-off is given here; in the data, active = GI50 up to about 1.1 µM and inactive = higher.
Thanks in advance; please answer with one of these: active, inactive

Previously resolved entries follow.
COMPOUND	STUDY_SYSTEM	ANSWER_LABEL
O=P1(Oc2ccc(Cl)cc2Cl)Oc2cc3ccccc3cc2O1	HL-60	inactive
N#CC(OC1OC(COC2OC(CO)C(O)C(O)C2O)C(O)C(O)C1O)c1ccccc1 (stereo unspecified)	HL-60	inactive
CCOC(=O)c1c(N2CCCC2)ncn(-c2ccccc2)c1=S	HL-60	inactive
O=C1OC[C@H]2[C@@H]1[C@H]1O[C@@H]2C2=C(CCC2)C1=O	HL-60	inactive
O=C(N/N=C\c1ccc([N+](=O)[O-])s1)c1ccncc1	HL-60	inactive

# outcome recorded in this test, key = C/N=C(\SC)N(C)c1nc(=[N+](C)C)ss1.[O-][Cl+3]([O-])([O-])[O-]
inactive

# outcome recorded in this test, key = C[n+]1ccn2c3nc4ccccc4nc3c([O-])c(C#N)c21
inactive

# outcome recorded in this test, key = CC(=O)NC1=CC(=O)C=C(Cl)C1=O
inactive

# outcome recorded in this test, key = Oc1ccc2ccccc2c1/N=N/c1cc(Cl)ccc1Cl
inactive

# outcome recorded in this test, key = COc1ccc2nc3cccc([N+](=O)[O-])c3c(NCCO)c2c1
active

# outcome recorded in this test, key = CC(=O)OC(OC(C)=O)c1c2ccccc2cc2ccccc12
inactive
